Tested on: MS2 coat protein
measurement protocol: apparent KD of MS2 coat protein; designed switch direction (-1 OFF switch, 1 ON switch): -1; higher = weaker reporter binding
condition set: Eterna round: R95; input ligand: FMN 200 uM
metric: apparent KD of MS2 coat protein (nM)
Use nM as the unit, but write only the number.

AAAGAACAUGAGGAUCACCCAUGUGAGGAUAUCGAGAAAAGAAAGAAGAAGAAGAAAACGAGAAGGCACAAGAA [The design that might work] (puzzle: Exclusion 1)	43.7
UAUAAAACAUAGGAUAUCGAAAUUAUCAUUUAACGAGAAGGAUGAACAUGAGGAUCACCCAUGUGGUAUCAUGG [Mat - Exclusion 6 - JL Mod - D10] (puzzle: Exclusion 6)	370
CUGAGGUAGCGGUCCUAUGACAUGAGGAUCACCCAUGUACCUUGCUUUGAGCUAAUUGCUCGUCUUAUGAUUCUCGG [Mat - Sensor v3 - turn-off var 1 - JL Mod - D45] (puzzle: Sensor v3, turn-off variant 1)	500
GAAAAGUGAGGAUAUGGUAAAAGAAGAAGAAGAAGAAAACUCCAGAAGGCACAUGAGGAUCACCCAUGUGAAAG [salish99_ex4_r3_008] (puzzle: Exclusion 4)	17
GAAAAGGUAGGAUAUACGAAAAAAAAGUGUAGAAAAAAAACACAUGAGGAUCACCCAUGUAGAAGGACCAAAAG [salish99_ex2_r3_069] (puzzle: Exclusion 2)	27
AGUUGGCGAGGAUAUACAUGAGGAUCACCCAUGUGAAAGAGAAGAGUGAGGAAGAAAAGUAGAAGGCGCUGACA [Mat - Exclusion 3 - Mod of Salish D39] (puzzle: Exclusion 3)	135

Inquiry: Would you mind telling me what apparent KD of MS2 coat protein value was observed for AGAAGUAGUAGCCGAUCCUACAUGAGGAUCACCCAUGUAGCUAGACGUGCACGCGAUGCUCGUCAGACUACCAGAUG [salish99_TOv1_r3_031] (puzzle: Sensor v3, turn-off variant 1) ?
Reply text: 131

Inquiry: Would you mind telling me what apparent KD of MS2 coat protein value was observed for UAAUACAAGUAAGGAUUCUACAUGAGGAUCACCCAUGUGCUCGUCUUAUAAAGUACUAUCACGAAAGUGAUAGUACU [Mat - Sensor v3 - turn-off var 1 - Eli Mod - D100] (puzzle: Sensor v3, turn-off variant 1) ?
Reply text: 21.8

Inquiry: Would you mind telling me what apparent KD of MS2 coat protein value was observed for AGAAGUAGAAACCGAUCCUACAUGAGGAUCACCCAUGUAGCAAGACGUGCACGCGAAGCUCGUCAGACUACCAGAAA [salish99_TOv1_r3_005] (puzzle: Sensor v3, turn-off variant 1) ?
Reply text: 159

Inquiry: Would you mind telling me what apparent KD of MS2 coat protein value was observed for AACCGGCGGACCGAAGCUUUUUGCUUGUUUUAUACUACAACAUGAGGAUCACCCAUGUGGUGGUGGUCCGUUGUAGA [Bitein] (puzzle: Sensor v3, turn-off variant 2) ?
Reply text: 47.9

Inquiry: Would you mind telling me what apparent KD of MS2 coat protein value was observed for UUUUAGAGAGGAUAUAUAUUGUGAAACAUGAGGAUCACCCAUGUAAUAAUAUGGAUGUAAAUAGAAGGCUCAUUUA [JL-ex5-3.03] (puzzle: Exclusion 5) ?
Reply text: 37.5

Inquiry: Would you mind telling me what apparent KD of MS2 coat protein value was observed for AGGUAACAUGAGGAUCACCCAUGUCAGGAUAUCAGUAAGAGGAGGAUAGAAUAGAGUAUGAGAAGGGACUAUAU [Excluse me! 23 - Jieux - Exclusion 1] (puzzle: Exclusion 1) ?
Reply text: 48

---

Tested on: MS2 coat protein
measurement protocol: apparent KD of MS2 coat protein, switch OFF state (with FMN for OFF switches, without FMN for ON switches); designed switch direction (-1 OFF switch, 1 ON switch): -1; higher = weaker reporter binding
condition set: FMN input: 0 or 200 uM; Eterna round: R93 (includes R88 designs)
Threshold rule: apparent KD of MS2 coat protein greater than or equal to 100 nM is label 1; below that, label 0.

AAAGGACGAGGAUAUACAUGAGGAUCACCCAUGUAAAAAACGUAAUAAAAGAACUUAUGUAGAAGGCGUCCAAA [69%, Moding Meechl, 7]	label 1

Inquiry: Is apparent KD of MS2 coat protein for AGGGAGUGAGGAUAUGCGAAAGAAAAAGAAAAAAAAAAAAAGCAGAAGGUACAUGAGGAUCACCCAUGUAAAAA [milkweed 6] at or above 100 nM?
Reply text: label 0

Inquiry: Is apparent KD of MS2 coat protein for GGUUGGCGAGGAUAUACAUGAGGAUCACCCAUGUGAGAGAAAAAAGUGAGGAGGAGAAGUAGAAGGCGCUGACG [salish99-ex3-17] at or above 100 nM?
Reply text: label 0

Inquiry: Is apparent KD of MS2 coat protein for GAAAAGUGAGGAUAUGUCAAAAGUCACAAAAGUGACAAAAGACAGAAGGCACAUGAGGAUCACCCAUGUGAAAG [Mat - Exaclusion 4 - Eli mod - D54] at or above 100 nM?
Reply text: label 0

Inquiry: Is apparent KD of MS2 coat protein for GUGUACAGAGGAUAUACAUGAGCAUGGAAACAUGCAAGAUCACAUGAGGAUCACCCAUGUAGAAGGCUGUACAC [Ex2: 733] at or above 100 nM?
Reply text: label 0

---

Test system: MS2 coat protein
measurement protocol: apparent KD of MS2 coat protein; designed switch direction (-1 OFF switch, 1 ON switch): -1; higher = weaker reporter binding
condition set: input ligand: FMN 200 uM
metric: apparent KD of MS2 coat protein
Respond with a number, then the unit of measure.

UUACUGUGAGGAUAUUACAUUUAGCGGCUAGCAACUAGGGAUAAGAAGGCACAUGAGGAUCACCCAUGUCCCGU [Eternabot (L1) Solution 35] (Eterna round: R97, puzzle: Exclusion 4)	95.7 nM
GAGCCUAAUGUAGGAUAUCGAGGUCGGUGACGUCGAGAAGGACAUGAGGAUCACCCAUGUCGUAGCGGCGGGAACGCUGCUACG [first try -36 kcal] (Eterna round: R96, puzzle: Exclusion NG 1)	82.9 nM

Inquiry: Would you mind telling me what apparent KD of MS2 coat protein value was observed for AGCAGACGAGGAUAUAGAUUUAGAUACAUGAGGAUCACCCAUGUAUAUAUGUAUUUAGAUUUAGAAGGCGUCUGCU [E5/15-A1] (Eterna round: R97, puzzle: Exclusion 5) ?
Reply text: 222 nM

---

Test system: MS2 coat protein
measurement protocol: apparent KD of MS2 coat protein; designed switch direction (-1 OFF switch, 1 ON switch): -1; higher = weaker reporter binding
condition set: input ligand: none
So basically, the class depends on measured apparent KD of MS2 coat protein, and the ranges are low range: < 0.03 µM; mid range: ≥ 0.03 µM and < 0.1 µM; high range: ≥ 0.1 µM

GGAUGAGAGCAGGAUAUCUUAUAAAUGUAUGAAAGAGAAGGGCUCACAUGAGGAUCACCCAUGUGGUCCUAGAU [jl-ex6-4.73 jandersonlee mod] (Eterna round: R97, puzzle: Exclusion 6)	mid range
UUGGUUGUGGUAGGAUAUCCGUUGGAAACUGUUGGAGAAGGACCACAGUCACUGGGUCCUUGUUUGGUGGAGUGGAAGAACCAU [pwkr exNG1 F6.16] (Eterna round: R96, puzzle: Exclusion NG 1)	high range
CGCAUGUGAGGAUAUGUACUAGUUGAGCACAGUCAGCCAGAACAGAAGGCACAUGAGGAUCACCCAUGUGUACC [EX4 B.7] (Eterna round: R97, puzzle: Exclusion 4)	low range
GUUAACGCAGGAUAUUAGUACAUGUACAUGAGGAUCACCCAUGUUUAUUGGGUCUAAGAAUAAGAAGGGCGAUGAA [JR_Ex5_Sub006] (Eterna round: R97, puzzle: Exclusion 5)	high range
ACAUGAGGAUCACCCAUGUUAUGUUGGGUACUAAAUUAUUCGUAGGAUAUCGUAGCUAGUUUGUGCGAGAAGGACGCAUUUUUU [JR_ExcNG3_Sub059] (Eterna round: R96, puzzle: Exclusion NG 3)	high range
UUUUAGUCAGGAUAUACAUGAGGAUCACCCAUGUAAAAUUUUAAUUUAAUUUUAAGGUGUAGAAGGGACAACCC [Ex3 #13] (Eterna round: R97, puzzle: Exclusion 3)	mid range
UGCGAGUAAGGAUAUUCGCGACCGUUCACAAGAACGGUCGAGAAGAAGGUACUUGAGGAUCACCCAAGUCCUAG [Leonxegece] (Eterna round: R97, puzzle: Exclusion 4)	low range

Inquiry: Kindly identify the class of AGCAAGCAAUAGGAUAUGCCUGCAAGCUUGCAUGCAGAAGGAUUGACUUGAGGAUCACCCAAGUGGGCUCCUAA [Erbexe] (Eterna round: R97, puzzle: Exclusion 6) .
Reply text: mid range
